Data credit: patent US20250011363A1

# Target of assay: acetylcholine receptor (Homo sapiens, UniProt P02708)
# Sequence (P02708 21-457): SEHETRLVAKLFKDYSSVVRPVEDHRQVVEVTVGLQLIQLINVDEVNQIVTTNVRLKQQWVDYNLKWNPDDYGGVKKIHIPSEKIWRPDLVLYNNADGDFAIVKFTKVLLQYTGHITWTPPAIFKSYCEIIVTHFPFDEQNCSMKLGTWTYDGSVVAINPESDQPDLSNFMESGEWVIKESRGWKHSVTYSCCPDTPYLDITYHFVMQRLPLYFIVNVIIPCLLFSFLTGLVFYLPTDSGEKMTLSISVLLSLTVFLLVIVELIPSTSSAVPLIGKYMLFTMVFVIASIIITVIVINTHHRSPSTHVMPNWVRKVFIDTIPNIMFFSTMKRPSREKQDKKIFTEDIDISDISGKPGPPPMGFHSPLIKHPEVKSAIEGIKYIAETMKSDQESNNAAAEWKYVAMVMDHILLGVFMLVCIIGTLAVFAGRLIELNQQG
# Assay text: SPR binding affinity (RU) of optimized 5mer/6mer/7mer peptides, Examples 6-7
# Measurement conditions: SPR, Resonance Units; peptides tested at 10 μM; 6mer-2 Top sequence
Measurement label: Binding affinity (Ru)
Express it in Ru; write the number only.

# input Returns the measured Binding affinity for the input substance. Input: 6mer-2-518 (KLVTKK)
# output 151

# input What measured Binding affinity goes with 6mer-2-581 (RVQQKR) ?
# output 139

# input Entry 6mer-2-596 (KGIQKK) : reported Binding affinity = ?
# output 153

# input Please give the measured Binding affinity for this substance: 6mer-2-405 (KGYRKK)
# output 137

# input Name the reported Binding affinity value associated with the substance 6mer-2-514 (KGLQKK)
# output 124

# input Reported Binding affinity for 6mer-2-543 (RRQYRR) : what is it?
# output 144

# input Value lookup for Binding affinity; key = 6mer-2-403 (KGVLRK)
# output 123

# input Give the measured Binding affinity of 6mer-2-492 (RLIQKK) .
# output 148
